- System: PBS1a (synthetic)
- procedure details: EMSA
property: Kd (nM)
Numbers only here, please. The scale is nM.

Request the reported Kd associated with GTGTGGAAAATCTCTAGCAGTGGCG [HIV-1 PBS hairpin, PBS1a site]
1.25

----------
- Tested on: PBS2 (synthetic)
- procedure details: EMSA
property: Kd (nM)
Numbers only here, please. The scale is nM.

Request the reported Kd associated with GCAGTGGCGCCCGAACAG [HIV-1 PBS hairpin, PBS2 site]
2.4

----------
- Test system: PBS3 (synthetic)
- procedure details: EMSA
property: pKd
Keep it numeric: pKd is minus log10 of the concentration in mol/L.

Request the reported pKd associated with TGGCGCCCGAACAGGGAC [HIV-1 PBS hairpin, PBS3 site]
9.03
